- Assayed target: recombinant HIV-1 protease (Human immunodeficiency virus type 1 group M subtype B)
- Construct: recombinant HIV-1 protease; purchased Bachem Bioscience
- Protocol summary: Fluorometric (FRET) enzymatic assay for the inhibition constant (Ki) against the HIV protease
- Assay type: biochemical
- Condition context: Table 1, benzylated D-mannitol derivatives; pH 4.7, 30° C., substrate 10 μM, protease 18.3 nM
Experimental endpoint: Ki (µM)

Known Ki results, listed for orientation:
INSERT INTO measurements (compound, assayed_target, experimental_endpoint, quantitative_readout) VALUES
  ('O[C@@H]([C@H](O)[C@@H](COCc1ccccc1)OCc1cccc(F)c1)[C@@H](COCc1ccccc1)OCc1cccc(F)c1 [Compound 20]', 'recombinant HIV-1 protease (Human immunodeficiency virus type 1 group M subtype B)', 'Ki', 1.8),
  ('O[C@@H]([C@H](O)[C@@H](COCc1ccccc1)OCc1ccc(Cl)cc1)[C@@H](COCc1ccccc1)OCc1ccc(Cl)cc1 [Compound 17]', 'recombinant HIV-1 protease (Human immunodeficiency virus type 1 group M subtype B)', 'Ki', 2),
  ('O[C@@H]([C@H](O)[C@@H](COCc1ccc(OCc2ccccc2)cc1)OCc1ccc(F)cc1)[C@@H](COCc1ccc(OCc2ccccc2)cc1)OCc1ccc(F)cc1 [Compound 58]', 'recombinant HIV-1 protease (Human immunodeficiency virus type 1 group M subtype B)', 'Ki', 5);

A: N#Cc1ccc(CO[C@H](COCc2ccccc2)[C@@H](O)[C@H](O)[C@@H](COCc2ccccc2)OCc2ccc(C(N)=O)cc2)cc1 [Compound 60]
B: Cc1ccc(CO[C@H](COCc2ccccc2F)[C@@H](O)[C@H](O)[C@@H](COCc2ccccc2F)OCc2ccc(C)cc2)cc1 [Compound 56]
Query string: Lowest Ki? choose A or B Give the chosen item's label as your response.
Result string: B
(B: 3.5 µM, A: 13 µM)

###

- Assayed target: recombinant HIV-1 protease (Human immunodeficiency virus type 1 group M subtype B)
- Construct: recombinant HIV-1 protease; purchased Bachem Bioscience
- Protocol summary: Fluorometric (FRET) enzymatic assay for the inhibition constant (Ki) against the HIV protease
- Type: biochemical
Experimental endpoint: Ki (µM)

INSERT INTO results (smiles_notation, assayed_target, unit_abbrev, quantitative_readout) VALUES
  ('O[C@@H]([C@H](O)[C@@H](COCc1ccccc1)OCc1ccccc1F)[C@@H](COCc1ccccc1)OCc1ccccc1F', 'recombinant HIV-1 protease (Human immunodeficiency virus type 1 group M subtype B)', 'µM', 3.7);

1: O[C@@H]([C@H](O)[C@@H](COCc1ccc(Cl)cc1)OCc1ccccc1)[C@@H](COCc1ccc(Cl)cc1)OCc1ccccc1
2: OCc1ccc(CO[C@H](COCc2ccccc2)[C@@H](O)[C@H](O)[C@@H](COCc2ccccc2)OCc2ccc(CO)cc2)cc1
3: O[C@@H]([C@H](O)[C@@H](COCc1c(F)cccc1F)OCc1ccc(F)cc1)[C@@H](COCc1c(F)cccc1F)OCc1ccc(F)cc1
4: O[C@@H]([C@H](O)[C@@H](COCc1ccc(F)cc1)OCc1ccc(F)cc1)[C@@H](COCc1ccc(F)cc1)OCc1ccc(F)cc1
Query string: Descending sort on Ki required. Output the labels ranked as instructed.
Result string: 2, 1, 4, 3

###

- Assayed target: recombinant HIV-1 protease (Human immunodeficiency virus type 1 group M subtype B, UniProt P04585)
- Construct: recombinant HIV-1 protease; purchased Bachem Bioscience
- Protocol summary: Fluorometric (FRET) enzymatic assay for the inhibition constant (Ki) against the HIV protease
- Format: biochemical
- Condition context: Table 1, benzylated D-mannitol derivatives; pH 4.7, 30° C., substrate 10 μM, protease 18.3 nM
- Description: Enzymatic Assay for Determining the Inhibition Constant (Ki) of Synthetic Compounds Prepared Against the HIV Protease This is a fluorometric assay based on the cleavage by protease of a substrate carrying a donor group (EDANS, excitation at 340 nm and emission at 490 nm) and an acceptor group (DABCYL) on each side of the cleavage site, interacting together through fluorescence resonance energy transfer (FRET). […]
pKi: −log10 of the molar value.
Experimental endpoint: pKi

INSERT INTO measurements (smiles_notation, quantitative_readout) VALUES
  ('O=[N+]([O-])c1ccc(CO[C@H](COCc2ccccc2)[C@@H](O)[C@H](O)[C@@H](COCc2ccccc2)OCc2ccccc2)cc1', 4.64),
  ('O[C@@H]([C@H](O)[C@@H](COCc1ccccc1)OCc1c(F)cccc1F)[C@@H](COCc1ccccc1)OCc1c(F)cccc1F', 5.19),
  ('O[C@@H]([C@H](O)[C@@H](COCc1ccccc1F)OCc1ccc(F)cc1)[C@@H](COCc1ccccc1)OCc1ccc(F)cc1', 6.05),
  ('Oc1ccc(CO[C@H](COCc2ccccc2F)[C@@H](O)[C@H](O)[C@@H](COCc2ccccc2F)OCc2ccc(O)cc2)cc1', 5.57),
  ('Cc1ccc(COC[C@@H](OCc2ccccc2)[C@@H](O)[C@H](O)[C@@H](COCc2ccc(C)cc2)OCc2ccccc2)cc1', 5.52);

P: O[C@@H]([C@H](O)[C@@H](COCc1ccccc1F)OCc1ccc(F)cc1)[C@@H](COCc1ccccc1F)OCc1ccc(F)cc1
Q: N#Cc1ccc(CO[C@H](COCc2ccccc2)[C@@H](O)[C@H](O)[C@@H](COCc2ccccc2)OCc2ccc(C#N)cc2)cc1
R: O[C@@H]([C@H](O)[C@@H](COCc1ccccc1F)OCc1ccc(Br)cc1)[C@@H](COCc1ccccc1F)OCc1ccc(Br)cc1
Query string: Descending sort on pKi required. Output the labels ranked as instructed.
Result string: P, R, Q
